# Test system: immobilized enzyme (acylase) of Bacillus circulans M-1123-5
# experimentalDetails: Reactivity of TA esters by column method
# Assay type: biochemical
# testContext: carrier Sepharose 4B; 7-ACA 5 mg/ml, 37° C., 25 ml/hr
measurementKind: 7-ACA→CET Conversion rate (%)
Give bare numbers, in %.

Recorded 7-ACA→CET Conversion rate (%) for O=C(Cc1cccs1)OCC(O)CO (centres unmarked) , please?
82.0

What about O=C(Cc1cccs1)OCCOCCOCCOCCO ?
87.6

What about COCCOCCOCCOCCOC(=O)Cc1cccs1 ?
86.5

What about COCCOCCOCCOCCOCCOCCOCCOCCOC(=O)Cc1cccs1 ?
69.8

Attention now turns to another entry.
Recorded 7-ACA→CET Conversion rate (%) for O=C(Cc1cccs1)OCCOCCOCCOCCOCCO , please?
69.9
